This collection of values is drawn from patent EP0531958A1.

System: Enterobacter cloacae OMNF 1153 | Read-out: MIC
Write the value in µg/mL as a bare number.

>  <molecule>
Cc1c(N2CCNCC2)c(N)cc2c(=O)c(C(=O)O)cn(C3CC3)c12

>  <readout.type>
MIC

>  <value.unit>
µg/mL

>  <endpoint.result>
0.25

$$$$
>  <molecule>
Cc1c(N2CCc3ccccc3C2)c(N)cc2c(=O)c(C(=O)O)cn(C3CC3)c12

>  <readout.type>
MIC

>  <value.unit>
µg/mL

>  <endpoint.result>
8

$$$$
>  <molecule>
CC1CN(c2cc3c(cc2N)c(=O)c(C(=O)O)cn3C2CC2)CCN1 (stereo not drawn)

>  <readout.type>
MIC

>  <value.unit>
µg/mL

>  <endpoint.result>
0.5

$$$$
>  <molecule>
CC(C)(C)n1cc(C(=O)O)c(=O)c2cc(N)c(N3CCc4ccccc4C3)cc21

>  <readout.type>
MIC

>  <value.unit>
µg/mL

>  <endpoint.result>
16

$$$$
>  <molecule>
Nc1cc2c(=O)c(C(=O)O)cn(C3CC3)c2c(F)c1N1CCSCC1

>  <readout.type>
MIC

>  <value.unit>
µg/mL

>  <endpoint.result>
1

$$$$

The record that follows has no MIC shown yet.
In: Give the reported MIC for `Nc1cc2c(=O)c(C(=O)O)cn(-c3ccc(F)cc3)c2cc1N1CCSCC1` (system: Enterobacter cloacae OMNF 1153).
Out: 4
